target: MAGE-A1 target antigen peptide … presented by HLA-A*02:01 on cells (human); test: cell-based or functional assay
Let's look at some binders and their measured EC50 Value (M), JKR9 reporter activation by peptide-loaded T2 cells.
Quantity measured: EC50 Value (M), JKR9 reporter activation by peptide-loaded T2 cells

- Binder: "ht27M1009 (TCR, V domains shown) Valpha: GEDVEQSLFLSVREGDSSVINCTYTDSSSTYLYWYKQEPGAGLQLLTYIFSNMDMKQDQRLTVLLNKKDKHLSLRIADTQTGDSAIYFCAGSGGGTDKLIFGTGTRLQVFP Vbeta: GAVVSQHPSWVICKSGTSVKIECRSLDFQATTMFWYRQFPKQSLMLMATSDYQTCVTYEQGVEKDKFLINHASLTLSTLTVTSAHPEDSSFYICSAREPGQGPFEQYFGPGTRLTVT"
  Unit text: "M"
  Quantitative result: "6.12e-09"
- Binder: "ht27M1006 (TCR, V domains shown) Valpha: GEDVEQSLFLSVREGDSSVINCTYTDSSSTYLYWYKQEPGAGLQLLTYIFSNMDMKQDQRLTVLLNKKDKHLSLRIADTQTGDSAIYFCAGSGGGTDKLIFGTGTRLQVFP Vbeta: GAVVSQHPSWVICKSGTSVKIECRSLDFQATTMFWYRQFPKQSLMLMATSNEGSKATYEQGVEKDKFLINHASLTLSTLTVTSAHPEDSSFYICSAREPGQGPWEQYFGPGTRLTVT"
  Unit text: "M"
  Quantitative result: "3.74e-08"
- Binder: "ht27M1290 (TCR, V domains shown) Valpha: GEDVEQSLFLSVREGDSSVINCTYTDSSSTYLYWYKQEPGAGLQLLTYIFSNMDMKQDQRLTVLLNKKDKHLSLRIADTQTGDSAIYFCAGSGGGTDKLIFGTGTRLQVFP Vbeta: GAVVSQHPSWVICKSGTSVKIECRSLDFQATTMFWYRQFPKQSLMLMATSNEGSKATYEQGVEKDKFLINHASLTLSTLTVTSAHPEDSSFYICSARVNDGTYEQYFGPGTRLTVT"
  Unit text: "M"
  Quantitative result: "3.24e-08"
- Binder: "ht27M1170 (TCR, V domains shown) Valpha: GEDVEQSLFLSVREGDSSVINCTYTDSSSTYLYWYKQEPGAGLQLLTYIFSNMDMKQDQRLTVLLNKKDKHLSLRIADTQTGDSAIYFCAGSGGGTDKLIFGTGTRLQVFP Vbeta: GAVVSQHPSWVICKSGTSVKIECRSLDFQATTMFWYRQFPKQSLMLMATSNEGSKATYEQGVEKDKFLINHASLTLSTLTVTSAHPEDSSFYICHAREPGQGPYEQYFGPGTRLTVT"
  Unit text: "M"
  Quantitative result: "4.25e-07"
- Binder: "ht27M1004 (TCR, V domains shown) Valpha: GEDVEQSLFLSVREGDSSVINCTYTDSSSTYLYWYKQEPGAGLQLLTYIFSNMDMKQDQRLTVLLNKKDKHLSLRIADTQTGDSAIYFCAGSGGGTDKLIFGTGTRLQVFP Vbeta: GAVVSQHPSWVICKSGTSVKIECRSLDFQATTMFWYRQFPKQSLMLMATSNEGSKATYEQGVEKDKFLINHASLTLSTLTVTSAHPEDSSFYICSAREPGQGPFEQYFGPGTRLTVT"
  Unit text: "M"
  Quantitative result: "1.76e-08"
